# Plant response rating, Bedstraw annotations
tested on: bedstraw; assay: Test B preemergence/postemergence greenhouse plant response rating 0 to 10; assay type: in vivo, Galium aparine; conditions: PREEMERGENCE, Rate 50 g/ha; 0 to 10 scale
ASSAY_METRIC: Plant response rating, Bedstraw

INSERT INTO measurements (compound, subject_of_test, assay_metric, observed_value) VALUES
  ('CCCCN1C(=O)COc2cc(F)c(-c3nn4c(c3Cl)CCCC4)cc21', 'bedstraw', 'Plant response rating, Bedstraw', 8),
  ('COCN1C(=O)COc2cc(F)c(-c3nn4c(c3Cl)CCCC4)cc21', 'bedstraw', 'Plant response rating, Bedstraw', 10),
  ('CCCN1C(=O)COc2cc(F)c(-c3nn4c(c3Br)CCCC4)cc21', 'bedstraw', 'Plant response rating, Bedstraw', 10),
  ('C=C(Cl)COc1cc(-c2nn3c(c2Cl)CCCC3)c(F)cc1Cl', 'bedstraw', 'Plant response rating, Bedstraw', 9),
  ('CC(C)OC(=O)c1cc(-c2nn3c(c2Cl)CCCC3)c(F)cc1Cl', 'bedstraw', 'Plant response rating, Bedstraw', 8),
  ('Fc1cc(Cl)c(-c2ccccc2)cc1-c1nn2c(c1Cl)CCCC2', 'bedstraw', 'Plant response rating, Bedstraw', 0),
  ('C#CC(C)Oc1cc(-c2nn3c(c2Cl)CCCC3)c(Cl)cc1Cl (stereo not drawn)', 'bedstraw', 'Plant response rating, Bedstraw', 0),
  ('COCOc1cc(-c2nn3c(c2Br)CCCC3)c(F)cc1Cl', 'bedstraw', 'Plant response rating, Bedstraw', 5),
  ('CCS(=O)(=O)Oc1cc(-c2nn3c(c2Cl)CCCC3)c(F)cc1Cl', 'bedstraw', 'Plant response rating, Bedstraw', 5);

###

tested on: rice; assay: Test B preemergence/postemergence greenhouse plant response rating 0 to 10; assay type: in vivo, Oryza sativa; details: POSTEMERGENCE, Rate 50 g/ha; 0 to 10 scale
ASSAY_METRIC: Plant response rating, Rice

INSERT INTO measurements (molecule, observed_value) VALUES
  ('C#CCOc1cc(-c2nn3c(c2Br)CCCC3)c(F)cc1Cl [Compound 26]', 5),
  ('Oc1cc(-c2nn3c(c2Br)CCCC3)c(F)cc1Cl [Compound 81]', 6),
  ('Clc1ccc(-c2nc3n(c2Cl)CCC=C3)c(Cl)c1 [Compound 1]', 4),
  ('C=CCN1C(=O)COc2cc(F)c(-c3nn4c(c3Br)CCCC4)cc21 [Compound 41]', 6),
  ('Oc1cc(-c2nn3c(c2Cl)CCCC3)c(Cl)cc1Cl [Compound 68]', 5),
  ('CCOC(=O)COc1cc(-c2nn3c(c2Cl)CCCC3)c(Cl)cc1Cl [Compound 73]', 6);

###

Form field: Plant response rating, Sugar beet (one value per entry).
system: sugar beet; test: Test B preemergence/postemergence greenhouse plant response rating 0 to 10; format: in vivo, Beta vulgaris; settings: PREEMERGENCE, Rate 50 g/ha; 0 to 10 scale
ASSAY_METRIC: Plant response rating, Sugar beet

INSERT INTO results (compound, assay_metric, observed_value) VALUES
  ('CC(=O)c1cc(-c2nn3c(c2Cl)CCCC3)c(F)cc1Cl', 'Plant response rating, Sugar beet', 7),
  ('C=CCOC(=O)COc1cc(-c2nn3c(c2Cl)CCCC3)c(F)cc1Cl', 'Plant response rating, Sugar beet', 10),
  ('C=C(Cl)COc1cc(-c2nn3c(c2Cl)CCCC3)c(F)cc1Cl', 'Plant response rating, Sugar beet', 9),
  ('CC(C)Oc1cc(-c2nn3c(c2Cl)CCCC3)c(Cl)cc1Cl', 'Plant response rating, Sugar beet', 6),
  ('Fc1cc(Cl)c(OC2CCCC2)cc1-c1nn2c(c1Cl)CCCC2', 'Plant response rating, Sugar beet', 9),
  ('COCCN1C(=O)COc2cc(F)c(-c3nn4c(c3Cl)CCCC4)cc21', 'Plant response rating, Sugar beet', 9);

###

Listing: Plant response rating, Sugar beet of selected molecules
test system: sugar beet; assay: Test B preemergence/postemergence greenhouse plant response rating 0 to 10; type: in vivo, Beta vulgaris; conditions: Rate 200 g/ha, PREEMERGENCE; 0 to 10 scale
ASSAY_METRIC: Plant response rating, Sugar beet

INSERT INTO measurements (compound, subject_of_test, assay_metric, observed_value) VALUES
  ('C=CCN1C(=O)COc2cc(F)c(-c3nn4c(c3Br)CCCC4)cc21', 'sugar beet', 'Plant response rating, Sugar beet', 10),
  ('Fc1cc(Cl)ccc1-c1nn2c(c1Br)CCCC2', 'sugar beet', 'Plant response rating, Sugar beet', 10),
  ('Clc1ccc(-c2nn3c(c2Cl)CCCC3)c(Cl)c1', 'sugar beet', 'Plant response rating, Sugar beet', 4);

###

The entries below are paired with their reported Plant response rating, Rice.
test system: rice; experiment: Test B preemergence/postemergence greenhouse plant response rating 0 to 10; assay type: in vivo, Oryza sativa; conditions: PREEMERGENCE, Rate 50 g/ha; 0 to 10 scale
ASSAY_METRIC: Plant response rating, Rice

INSERT INTO measurements (molecule, assay_metric, observed_value) VALUES
  ('COCOc1cc(-c2nn3c(c2Br)CCCC3)c(F)cc1Cl', 'Plant response rating, Rice', 1),
  ('CC(C#N)Oc1cc(-c2nn3c(c2Cl)CCCC3)c(F)cc1Cl (stereo not shown)', 'Plant response rating, Rice', 1),
  ('CC(=O)c1cc(-c2nn3c(c2Cl)CCCC3)c(F)cc1Cl', 'Plant response rating, Rice', 0),
  ('CCS(=O)(=O)Oc1cc(-c2nn3c(c2Cl)CCCC3)c(F)cc1Cl', 'Plant response rating, Rice', 0),
  ('Fc1cc(Cl)c(OCc2ccccc2)cc1-c1nn2c(c1Cl)CCCC2', 'Plant response rating, Rice', 0),
  ('COCCOc1cc(-c2nn3c(c2Cl)CCCC3)c(Cl)cc1Cl', 'Plant response rating, Rice', 0),
  ('Clc1ccc(-c2nc3n(c2Cl)CCC=C3)c(Cl)c1', 'Plant response rating, Rice', 0),
  ('C#CC(C)Oc1cc(-c2nn3c(c2Cl)CCCC3)c(F)cc1Cl (stereo not shown)', 'Plant response rating, Rice', 0),
  ('COCOc1cc(-c2nn3c(c2Cl)CCCC3)c(F)cc1Cl', 'Plant response rating, Rice', 0),
  ('C#CC(C)Oc1cc(-c2nn3c(c2Br)CCCC3)c(F)cc1Cl (stereo not shown)', 'Plant response rating, Rice', 0);

###

test system: sorghum; assay: Test C preemergence/postemergence greenhouse plant response rating 0 to 100; assay type: in vivo, Sorghum bicolor; settings: Rate 16 g/ha; POSTEMERGENCE
// reported Plant response rating (0 to 100), Sorghum per item
ASSAY_METRIC: Plant response rating (0 to 100), Sorghum

INSERT INTO measurements (compound, subject_of_test, observed_value) VALUES
  ('CC(C)OC(=O)c1cc(-c2nn3c(c2Cl)CCCC3)c(F)cc1Cl', 'sorghum', 40),
  ('CCOC(=O)COc1cc(-c2nn3c(c2Cl)CCCC3)c(F)cc1Cl', 'sorghum', 40),
  ('COCN1C(=O)COc2cc(F)c(-c3nn4c(c3Br)CCCC4)cc21', 'sorghum', 40);

###

tested on: morningglory; test: Test B preemergence/postemergence greenhouse plant response rating 0 to 10; type: in vivo, Ipomoea hederacea; settings: Rate 200 g/ha, PREEMERGENCE; 0 to 10 scale
ASSAY_METRIC: Plant response rating, Morningglory

INSERT INTO measurements (compound, observed_value) VALUES
  ('C=C(Cl)COc1cc(-c2nn3c(c2Cl)CCCC3)c(F)cc1Cl', 4),
  ('Clc1ccc(-c2nn3c(c2Cl)CCCC3)c(Cl)c1', 2),
  ('Fc1cc(Cl)c(OCCCl)cc1-c1nn2c(c1Cl)CCCC2', 6),
  ('Fc1cc(Cl)ccc1-c1nn2c(c1Br)CCCC2', 2),
  ('Fc1cc(Cl)c(OCc2ccccc2)cc1-c1nn2c(c1Cl)CCCC2', 2),
  ('O=C1COc2cc(F)c(-c3nn4c(c3Cl)CCCC4)cc2N1', 10);

###

tested on: common purslane; test: Test G preemergence/postemergence greenhouse plant response rating 0 to 100; type: in vivo, Portulaca oleracea; conditions: POSTEMERGENCE, Rate 125 g/ha, 0 to 100 scale
# Plant response rating, Cmn Purslane annotations
ASSAY_METRIC: Plant response rating, Cmn Purslane

INSERT INTO assay_data (molecule, assay_metric, observed_value) VALUES
  ('CCCN1C(=O)COc2cc(F)c(-c3nn4c(c3Cl)CCCC4)cc21 [Compound 32]', 'Plant response rating, Cmn Purslane', 100),
  ('Fc1cc(Cl)c(OC2CCCC2)cc1-c1nn2c(c1Cl)CCCC2 [Compound 24]', 'Plant response rating, Cmn Purslane', 80),
  ('C#CCOc1cc(-c2nn3c(c2Br)CCCC3)c(F)cc1Cl [Compound 26]', 'Plant response rating, Cmn Purslane', 100);
